The origin of these recorded values is patent US20210382058A1.

- System: NCI-60 cancer cell lines
- Assay: NCI-60 cancer cell line drug screen (GI50, MGM)
- Type: cell-based, human
- Experimental parameters: Homo sapiens, BT-549, Breast Cancer, BT-549; read-out: Antiproliferative Activities [GI50 (μM)]
// values below are reported GI50
Recorded metric: GI50 (µM)

>>> value_measured("COc1cc2c(cc1O)-c1c(c3ccc([N+](=O)[O-])cc3c(=O)n1CCCN)C2=O [Compound 38]")
0.36
>>> value_measured("COc1cc2c(cc1O)-c1c(c3ccc([N+](=O)[O-])cc3c(=O)n1CCCn1ccnc1)C2=O [Compound 37]")
0.35
>>> value_measured("COc1cnc2c(c1)C(=O)c1c-2n(CCCN2CCCC2)c(=O)c2cc([N+](=O)[O-])ccc12 [Compound 9]")
0.35
>>> value_measured("CNCCCn1c2c(c3ccc(F)cc3c1=O)C(=O)c1cc(OC)cnc1-2 [Compound 6]")
0.58
>>> value_measured("CNCCCn1c2c(c3ccc([N+](=O)[O-])cc3c1=O)C(=O)c1cc(OC)cnc1-2 [Compound 10]")
0.37
>>> value_measured("COc1cnc2c(c1)C(=O)c1c-2n(CCCNC2=NCCS2)c(=O)c2cc([N+](=O)[O-])ccc12 [Compound 12]")
0.05
>>> value_measured("CN(C)CCCn1c2c(c3cccnc3c1=O)C(=O)c1ccccc1-2 [Compound 20]")
1.67
>>> value_measured("COc1cc2c(cc1O)-c1c(c3ccc([N+](=O)[O-])cc3c(=O)n1CCCN1CCOCC1)C2=O [Compound 36]")
0.12
>>> value_measured("CN(C)CCCn1c2c(c3ccc(N4CCNCC4)cc3c1=O)C(=O)c1ccccc1-2 [Compound 25]")
1.27
>>> value_measured("CN(C)CCCn1c2c(c3ccc(-c4ccn[nH]4)cc3c1=O)C(=O)c1ccccc1-2 [Compound 30]")
3.1
>>> value_measured("COc1cnc2c(c1)C(=O)c1c-2n(CCCNCCN2CCOCC2)c(=O)c2cc([N+](=O)[O-])ccc12 [Compound 11]")
0.29
>>> value_measured("COc1ccc2c(c1)C(=O)c1c-2n(CCCN2CCOCC2)c(=O)c2ccccc12 [Compound 19]")
4.11
>>> value_measured("COc1cnc2c(c1)C(=O)c1c-2n(CCCNC(C)C)c(=O)c2cc(F)ccc12 [Compound 5]")
0.66
>>> value_measured("CNCCCn1c2c(c3ccc(Cl)cc3c1=O)C(=O)c1cc(OC)cnc1-2 [Compound 3]")
0.65
>>> value_measured("O=C1c2ccccc2-c2c1c1ccccc1c(=O)n2CCCNCCO [Compound 13]")
0.28

====

- System: NCI-60 cancer cell lines
- Assay: NCI-60 cancer cell line drug screen (GI50, MGM)
- Type: cell-based, human
- Experimental parameters: Homo sapiens, NCI-H226, Non-Small Cell Lung Cancer, NCI-H226; read-out: Antiproliferative Activities [GI50 (μM)]
// values below are reported GI50
Recorded metric: GI50 (µM)

>>> value_measured("COc1cc2c(cc1O)-c1c(c3ccc([N+](=O)[O-])cc3c(=O)n1CCCN)C2=O")
1.18
>>> value_measured("COc1cc2c3c(n(CCCNCCN)c(=O)c2cc1OC)-c1cc2c(cc1C3=O)OCO2")
0.65
>>> value_measured("CNCCCn1c2c(c3ccc(F)cc3c1=O)C(=O)c1cc(OC)cnc1-2")
0.16
>>> value_measured("COc1cnc2c(c1)C(=O)c1c-2n(CCCNC(C)C)c(=O)c2cc(F)ccc12")
0.15
>>> value_measured("CN(C)CCCn1c2c(c3ccc(-c4ccn[nH]4)cc3c1=O)C(=O)c1ccccc1-2")
0.27
>>> value_measured("COc1cc2c3c(n(CCCN4CCC(N)CC4)c(=O)c2cc1OC)-c1cc2c(cc1C3=O)OCO2")
0.66
>>> value_measured("CN(C)CCCn1c2c(c3ccc(N4CCNCC4)cc3c1=O)C(=O)c1ccccc1-2")
0.56
>>> value_measured("CN(C)CCCn1c2c(c3cccnc3c1=O)C(=O)c1ccccc1-2")
1.32
>>> value_measured("COc1cnc2c(c1)C(=O)c1c-2n(CCCN2CCCC2)c(=O)c2cc([N+](=O)[O-])ccc12")
0.1
>>> value_measured("COc1cnc2c(c1)C(=O)c1c-2n(CCCNCCN2CCOCC2)c(=O)c2cc([N+](=O)[O-])ccc12")
0.17
>>> value_measured("COc1ccc2c(c1)C(=O)c1c-2n(CCCN2CCOCC2)c(=O)c2ccccc12")
2.79
>>> value_measured("COc1cc2c3c(n(CCCN)c(=O)c2cc1OC)-c1cc2c(cc1C3=O)OCO2")
1.39
>>> value_measured("COc1cnc2c(c1)C(=O)c1c-2n(CCCNC2=NCCS2)c(=O)c2cc([N+](=O)[O-])ccc12")
0.04
>>> value_measured("CNCCCn1c2c(c3ccc([N+](=O)[O-])cc3c1=O)C(=O)c1cc(OC)cnc1-2")
0.09
